For each entry below, report its hCD71:HSA value.
# system: T1, human CD71 extracellular domain (human, UniProt P02786 89-760)
# T1 construct: also called hCD71; CD71-ECD
# T1 sequence (P02786 89-760): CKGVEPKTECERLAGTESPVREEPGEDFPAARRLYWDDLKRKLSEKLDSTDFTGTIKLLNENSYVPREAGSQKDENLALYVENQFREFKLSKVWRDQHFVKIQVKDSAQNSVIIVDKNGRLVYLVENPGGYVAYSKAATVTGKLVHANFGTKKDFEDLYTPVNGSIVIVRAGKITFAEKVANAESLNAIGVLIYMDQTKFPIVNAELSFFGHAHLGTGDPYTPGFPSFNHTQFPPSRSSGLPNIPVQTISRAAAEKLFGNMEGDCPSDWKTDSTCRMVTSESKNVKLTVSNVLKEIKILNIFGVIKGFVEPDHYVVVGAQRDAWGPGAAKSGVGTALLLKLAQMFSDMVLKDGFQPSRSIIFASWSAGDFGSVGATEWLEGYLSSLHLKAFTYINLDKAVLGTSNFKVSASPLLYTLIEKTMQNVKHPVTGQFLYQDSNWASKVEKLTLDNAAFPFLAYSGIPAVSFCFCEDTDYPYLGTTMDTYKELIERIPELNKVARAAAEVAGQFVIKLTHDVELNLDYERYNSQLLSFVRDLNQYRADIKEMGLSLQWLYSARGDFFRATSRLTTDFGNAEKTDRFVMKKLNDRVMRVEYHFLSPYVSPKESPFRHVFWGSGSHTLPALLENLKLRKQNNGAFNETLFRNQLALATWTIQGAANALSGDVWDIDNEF
# assay_method_text: primary ELISA; signal over HSA control
Enter your answer as a number in ratio; do not include the unit.

Please fill in: hCD71:HSA reported for CD71-binding FN3 domain SEQ ID NO 372 (designed binder) MLPAPKNLVVSRVTEDSARLSWTAPDAAFDSFFIGYLEPQPPGEAINLLVPGSERSYDLTGLKPGTEYNVTIQGVKGGFPSLPLLAEFTT = 124

Please fill in: hCD71:HSA reported for CD71-binding FN3 domain SEQ ID NO 416 (designed binder) MLPAPKNLVVSRVTEDSARLSWTAPDAAFDSFFIGYLEPQPPGEAIALYVPGSERSYDLTGLKPGTEYNVTIQGVKGGFPSLPLVATFTT = 54

Please fill in: hCD71:HSA reported for CD71-binding FN3 domain SEQ ID NO 409 (designed binder) MLPAPKNLVVSRVTEDSARLSWTAPDAAFDSFFIGYLEPQPPGEAIHLFVPGSERSYDLTGLKPGTEYNVTIQGVKGGFPSNPLSAQFTT = 225

Please fill in: hCD71:HSA reported for CD71-binding FN3 domain SEQ ID NO 426 (designed binder) MLPAPKNLVVSRVTEDSARLSWTAPDAAFDSFFIGYLEPQPPGEAIFLLVPGSERSYDLTGLKPGTEYNVTIQGVKGGFPSMPLSAIFTT = 13

// data source = patent US20260151494A1
